# target-or-test-system: InhA-NADH complex (Mycobacterium tuberculosis, UniProt P9WGR1)
# Sequence (P9WGR1 whole entry, looked up, one chain of several): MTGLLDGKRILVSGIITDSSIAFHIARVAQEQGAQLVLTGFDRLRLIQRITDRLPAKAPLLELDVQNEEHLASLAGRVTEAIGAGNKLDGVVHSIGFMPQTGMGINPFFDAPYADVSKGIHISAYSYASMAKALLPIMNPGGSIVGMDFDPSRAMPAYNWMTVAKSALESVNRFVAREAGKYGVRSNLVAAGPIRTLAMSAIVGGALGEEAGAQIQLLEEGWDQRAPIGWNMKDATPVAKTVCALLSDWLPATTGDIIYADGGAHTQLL
# experiment-notes: biochemical
# Format: binding
measurement-type: Kd

{"smiles-str": "CC(C)Cc1cc(O)c(-c2ccccc2)c(=O)[nH]1", "value-observed": "25 µM"}

###

# System: Mtb H37Rv
# experiment-notes: microbe, parasite or virus in culture
# Assay type: cell-based, Mycobacterium tuberculosis
# experimental-conditions: Mycobacterium tuberculosis, H37RV, read-out: Compound MIC50
measurement-type: MIC50 (µM)

{"molecule": "CCc1cc(C(N)=S)ccn1 [ethionamide]", "target-or-test-system": "Mtb H37Rv", "value-observed": 1.66}
{"molecule": "NNC(=O)c1ccncc1 [isoniazid]", "target-or-test-system": "Mtb H37Rv", "value-observed": 0.25}
{"molecule": "CC(C)Cc1cc(O)c(-c2ccccc2)c(=O)[nH]1 [NITD-529]", "target-or-test-system": "Mtb H37Rv", "value-observed": 1.54}
{"molecule": "[H]/N=C(/N)N[C@H]1[C@H](O)[C@@H](O)[C@H](O[C@@H]2O[C@@H](C)[C@](O)(C=O)[C@H]2O[C@@H]2O[C@@H](CO)[C@H](O)[C@@H](O)[C@@H]2NC)[C@@H](N/C(N)=N\\[H])[C@@H]1O [streptomycin]", "target-or-test-system": "Mtb H37Rv", "value-observed": 0.08}

###

# target-or-test-system: InhA (Mycobacterium tuberculosis, UniProt P9WGR1)
# Sequence (P9WGR1 whole entry, looked up): as the sequence (P9WGR1 whole entry, looked up, one chain of several) above
# experiment-notes: biochemical
pIC50: −log10 of the molar value.

{"smiles-str": "CC(C)Cc1cc(O)c(-c2ccccc2)c(=O)[nH]1", "pIC50": 5.02}
